Catalogue of IC50 values
System: PBMCs
Assay: IL-2 and IFN gamma release in CD3/CD28 stimulated PBMC cells
Type: cell-based
Conditions: Homo sapiens, read-out: IC50 Values for Inhibition of Cytokine Release PBMCs IL-2

Smiles Structure	IC50
COCCOCCOCCOCCOCCOCCOCCOc1cc(Nc2nccc(Oc3ccc(NC(=O)Nc4cc(C(C)(C)C)nn4-c4ccc(C)cc4)c4ccccc34)n2)cc(OC)c1	40.7 nM
COc1cc(Nc2nccc(Oc3ccc(NC(=O)Nc4cc(C(C)(C)C)nn4-c4ccc(C)cc4)c4ccccc34)n2)cc(OCCOCCOCCN2CCOCC2)c1	39.6 nM
COCCOCCOCCOc1cc(Nc2nccc(Oc3ccc(NC(=O)Nc4cc(C(C)(C)C)nn4-c4ccc(OC)nc4)c4ccccc34)n2)cc(OC)c1	40.9 nM

---

UniProtKB P43405 IC50 data

Smiles Structure	Unit Descriptor	IC50
COc1cc(Nc2nccc(Oc3ccc(NC(=O)Nc4cc(C(C)C)nn4-c4ccc(C)cc4)c4ccccc34)n2)cc(SCCO)c1	nM	134
COc1cc(Nc2nccc(Oc3ccc(NC(=O)Nc4cc(C(C)C)nn4-c4ccc(C)cc4)c(Cl)c3Cl)n2)cc(OCCN2CCOCC2)c1	nM	72
COc1ccc(-n2nc(C(C)(C)C)cc2NC(=O)Nc2ccc(Oc3ccnc(Nc4cccc(OS(C)(=O)=O)c4)n3)c3ccccc23)cn1	nM	66

---

Measured pIC50 of individual entries
Molecular target: c-Src (Homo sapiens (Human), UniProt P12931)
Sequence (P12931 whole entry, looked up): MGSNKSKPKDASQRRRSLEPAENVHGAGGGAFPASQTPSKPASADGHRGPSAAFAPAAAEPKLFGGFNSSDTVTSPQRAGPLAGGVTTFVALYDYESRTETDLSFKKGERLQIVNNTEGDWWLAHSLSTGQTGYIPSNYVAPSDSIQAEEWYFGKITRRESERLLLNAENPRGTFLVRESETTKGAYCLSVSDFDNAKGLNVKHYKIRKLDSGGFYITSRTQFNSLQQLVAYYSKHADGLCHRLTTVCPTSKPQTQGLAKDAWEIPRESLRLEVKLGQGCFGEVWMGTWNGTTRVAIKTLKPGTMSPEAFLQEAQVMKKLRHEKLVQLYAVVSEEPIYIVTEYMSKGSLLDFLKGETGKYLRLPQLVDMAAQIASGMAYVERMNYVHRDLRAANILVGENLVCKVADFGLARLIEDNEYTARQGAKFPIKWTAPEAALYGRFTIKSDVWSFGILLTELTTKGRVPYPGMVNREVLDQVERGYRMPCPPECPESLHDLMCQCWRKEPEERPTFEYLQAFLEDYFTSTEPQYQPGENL
pIC50: −log10 of the molar value.

Smiles Structure	pIC50
COc1ccc(-n2nc(C(C)(C)C)cc2NC(=O)Nc2ccc(Oc3ccnc(Nc4cccc(N=S(C)(C)=O)c4)n3)c3ccccc23)cn1	8.10
COCCOCCOCCOc1cc(Nc2nccc(Oc3ccc(NC(=O)Nc4cc(C(C)(C)C)nn4-c4ccc(C)cc4)c4ccccc34)n2)cc(OC)c1	7.96
COCCOCCOCCOCCOc1cc(Nc2nccc(Oc3ccc(NC(=O)Nc4cc(C(C)C)nn4-c4ccc(C)cc4)c4ccccc34)n2)cc(OC)c1	8.22
COc1cc(Nc2nccc(Oc3ccc(NC(=O)Nc4cc(C(C)(C)C)nn4-c4ccc(C)cc4)c4ccccc34)n2)cc(OCCN2CCOCC2)c1	7.92
COCCOCCOCCOc1cc(Nc2nccc(Oc3ccc(NC(=O)Nc4cc(C(C)(C)C)nn4-c4ccc(C)cc4)c4ccccc34)n2)cc(OC)n1	7.85
COCCOCCOCCOc1cc(Nc2nccc(Oc3ccc(NC(=O)Nc4cc(C(C)(C)C)nn4-c4ccc(OC)cc4)c4ccccc34)n2)cc(OC)c1	8.00
COc1cc(Nc2nccc(Oc3ccc(NC(=O)Nc4cc(C(C)(C)C)nn4-c4ccc(C)cc4)c4ccccc34)n2)cc(OCCOCCOCCN(C)C)c1	8.15
COCCOCCOCCOc1cc(Nc2nccc(Oc3ccc(NC(=O)Nc4cc(C(C)C)nn4-c4ccc(C)cc4)c(Cl)c3Cl)n2)cc(OC)c1	7.82
COc1cc(Nc2nccc(Oc3ccc(NC(=O)Nc4cc(C(C)C)nn4-c4ccc(C)cc4)c4ccccc34)n2)cc(OCCOCCOCCO)c1	8.10
COCCOCCOCCOCCOCCOCCOCCOc1cc(Nc2nccc(Oc3ccc(NC(=O)Nc4cc(C(C)(C)C)nn4-c4ccc(C)cc4)c4ccccc34)n2)cc(OC)c1	8.00
COCCOCCOCCOc1cc(Nc2nccc(Oc3ccc(NC(=O)Nc4cc(C(C)(C)C)nn4-c4ccc(N(C)C)cc4)c4ccccc34)n2)cc(OC)c1	7.89

---

Consider compounds characterized by their IC50 with GSK3α (Homo sapiens (Human)).
Sequence (P49840 whole entry): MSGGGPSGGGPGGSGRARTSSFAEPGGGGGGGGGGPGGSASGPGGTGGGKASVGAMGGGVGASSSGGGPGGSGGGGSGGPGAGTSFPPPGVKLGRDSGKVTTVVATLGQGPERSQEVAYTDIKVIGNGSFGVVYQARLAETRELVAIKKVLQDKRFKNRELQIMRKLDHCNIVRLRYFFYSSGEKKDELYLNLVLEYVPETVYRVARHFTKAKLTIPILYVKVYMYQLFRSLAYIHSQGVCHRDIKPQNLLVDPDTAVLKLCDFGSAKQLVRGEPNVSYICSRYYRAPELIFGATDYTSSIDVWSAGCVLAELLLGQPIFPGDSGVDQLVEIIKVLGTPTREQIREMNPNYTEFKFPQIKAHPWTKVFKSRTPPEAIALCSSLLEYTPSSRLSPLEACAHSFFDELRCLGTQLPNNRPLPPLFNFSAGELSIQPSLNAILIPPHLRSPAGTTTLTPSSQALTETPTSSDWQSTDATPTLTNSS
Property Name: IC50 (µM)

Compound	Property Name	Inequality Symbol	Assay Value
COCCOCCOCCOc1cc(C#N)cc(Nc2nccc(Oc3ccc(NC(=O)Nc4cc(C(C)(C)C)nn4-c4ccc(C)cc4)c4ccccc34)n2)c1 [Example 52]	IC50	>	13
COc1cc(Nc2nccc(Oc3ccc(NC(=O)Nc4cc(C(C)C)nn4-c4ccc(C)cc4)c4ncccc34)n2)cc(OCCN2CCOCC2)c1 [Example 28]	IC50	>	10
COCCOCCOCCOCCOc1cc(Nc2nccc(Oc3ccc(NC(=O)Nc4cc(C(C)C)nn4-c4ccc(C)cc4)c4ccccc34)n2)cc(OC)c1 [Example 29]	IC50	>	10
Cc1ccc(-n2nc(C(C)C)cc2NC(=O)Nc2ccc(Oc3ccnc(Nc4cccc(S(=O)(=O)C5CC5)c4)n3)c(Cl)c2Cl)cc1 [Example 24]	IC50	=	0.117
COCCOCCOCCOCCOCCOc1cc(Nc2nccc(Oc3ccc(NC(=O)Nc4cc(C(C)C)nn4-c4ccc(C)cc4)c4ccccc34)n2)cc(OC)c1 [Example 30]	IC50	=	7.23
Cc1ccc(-n2nc(C(C)C)cc2NC(=O)Nc2ccc(Oc3ccnc(Nc4cccc(OCCOCCOCCO)c4)n3)c3ccccc23)cc1 [Example 19]	IC50	=	1.07
